# credit: paper PMC7826789

system: PIK3CA(E542K); details: Compound Concentration (nM):1000;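 note: KINOMEscan scanMAX binding as percent activity remaining versus control; lower means stronger binding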
QUANTITY NAME: Percent Control (%)
Report only the number, with the unit % understood.

Input line: Percent Control lookup needed for CCc1ccc(Oc2nccc(-c3c(-c4ccc(F)cc4)ncn3C3CCNCC3)n2)cc1 , thanks.
Output line: 98

Input line: Percent Control lookup needed for COc1ccccc1-c1cc(/C=C2\C(=O)Nc3ncc(Br)cc32)cc(Br)c1O [GW442130X] , thanks.
Output line: 100

Input line: Fill in the blank: the reported Percent Control of Cl.O=S1CCN(Cc2ccc(-c3ccc4ncnc(Nc5ccc(OCc6ccccc6)c(F)c5)c4c3)o2)CC1 [GW576924A] is ____.
Output line: 100

Input line: Entry under review: CC(C)COC(=O)c1ccc2c(c1)/C(=C/Nc1ccc(S(N)(=O)=O)cc1)C(=O)N2 [GW416981X] . Reported Percent Control?
Output line: 100

Input line: Any idea what Percent Control was measured for CCS(=O)(=O)c1ccc(OC)c(Nc2ncc(-c3cccc(F)c3)o2)c1 [GW621970X] ?
Output line: 100

Input line: What value of measured Percent Control is listed for NS(=O)(=O)c1ccc(N/N=C2\C(=O)Nc3ccc(C(=O)NCc4ccncc4)cc32)cc1 [GW300657X] ?
Output line: 85

Input line: For the compound shown here, CCn1c(-c2nonc2N)nc2c(C#CC(C)(C)O)nc(OCCNC)cc21.Cl , give the reported Percent Control.
Output line: 100

Input line: Percent Control lookup needed for CC1=C(C(=O)Nc2ccc3[nH]ncc3c2)C(c2ccc(Cl)c(Cl)c2)CC(=O)N1 (stereo not drawn) [GSK299115A] , thanks.
Output line: 73

Input line: Look up Percent Control: COc1ccc2cc(-c3c(-c4ccncc4)nc(-c4ccc(S(C)(=O)=O)cc4C)n3C)ccc2c1
Output line: 79

Input line: Item under review: CC1=C(C(=O)Nc2ccc3[nH]ncc3c2)C(c2ccc3ccccc3c2)CC(=O)N1 (stereo not drawn) [GSK270822A] . Reported Percent Control?
Output line: 83

Input line: Would you kindly share the measured Percent Control for COc1ccc(COc2ccc(Cc3cnc(N)nc3N)cc2OC)cc1 [GW632580X] ?
Output line: 96

Input line: Please look up its Percent Control: C/C(Nc1ccc(S(N)(=O)=O)cc1)=C1/C(=O)Nc2ccccc21 [GW335962X]
Output line: 100

Input line: Which Percent Control value belongs to CCS(=O)(=O)c1ccc(OC)c(Nc2ncc(-c3cccc(OC)c3)o2)c1 [GW580509X] ?
Output line: 100

Input line: # input compound: O=C1Nc2ccc(C(=O)c3ccco3)cc2C1=Cc1cc(Cl)c(O)c(Cl)c1 [GW406108X] ; wanted: its Percent Control
Output line: 76

Input line: Data request, read-out Percent Control, for COc1cccc(-n2ncc3c(N/N=C/c4ccncc4)ncnc32)c1 [GW784752X]
Output line: 100

Input line: Which Percent Control value is on record for COC(=O)Nc1nc2ccc(Oc3ccc(NC(=O)Nc4cc(C(F)(F)F)ccc4F)cc3)cc2s1.Cl [GW693917A] ?
Output line: 96

Input line: Fill in the blank: the reported Percent Control of COc1cc(N2CCN(C(C)C)CC2)ccc1Nc1nc(Nc2ccc(F)cc2C(=O)NC[C@@H](O)CO)c2cc[nH]c2n1 [GSK1392956A] is ____.
Output line: 100

Input line: Which measured Percent Control value corresponds to Cl.O=C(O[C@H]1CN[C@H](C#Cc2cc3ncnc(Nc4ccc5c(cnn5Cc5ccccc5)c4)c3s2)C1)N1CCOCC1 [GSK200398A] ?
Output line: 100

Input line: Given the entry COc1cc(/C=N/Nc2ncnc3[nH]ncc23)ccc1O [GW578748X] , report its measured Percent Control.
Output line: 63

Input line: Reported Percent Control for C[C@@H](Oc1cc(-n2cnc3ccc(OC4CCN(C)CC4)cc32)sc1C(N)=O)c1ccccc1Cl [GSK579289A] : what is it?
Output line: 80

Input line: Any idea what Percent Control was measured for NS(=O)(=O)c1ccc(N/N=C2\C(=O)Nc3ccc(-c4cnco4)cc32)cc1 ?
Output line: 89

Input line: Requested read-out: Percent Control. Entry: Cc1cc(O)cc(C)c1/C=C/c1cncc(C(N)=O)c1 [GW435821X]
Output line: 100

Input line: Give its Percent Control value. Item: COc1ccc2c(-c3ccnc(Nc4cccc(OC(F)(F)F)c4)n3)cnn2n1 [GW810372X]
Output line: 100

Input line: // Percent Control lookup, key: NS(=O)(=O)c1ccc(N/N=C2\C(=O)Nc3ccc(C(=O)NCCc4c[nH]cn4)cc32)cc1 [GW300660X]
Output line: 100
